system: P388/ADR cell lines (overexpress the multidrug resistance pump MDR-1); assay: Multidrug resistant cell assay, cell viability by ATP-lite; assay type: cell-based, murine; details: Mus musculus, 72 h, multidrug resistant cells overexpressing MDR-1
// IC50 lookup, one value per entry
// return numeric value only (unit: nM, not printed)

Briefly, IC50 measured for COc1ccc(N(C)c2nc(NCCCN(C)c3nc(N(C)c4ccc(OC)cc4)c4ccccc4n3)nc3ccccc23)cc1 [Example 48] : 83

Briefly, IC50 measured for COc1ccc(N(C)c2nc(NCCOC(=O)[C@@H](N)CCSC)nc3ccccc23)cc1 [Example 27] : 220

Briefly, IC50 measured for COc1ccc(N(C)c2nc(N[C@@H](C)C(=O)OC(C)(C)C)nc3ccccc23)cc1 [Example 28] : 170

More entries:
Briefly, IC50 measured for COc1ccc(N(C)c2nc(N[C@@H](CO)Cc3ccccc3)nc3ccccc23)cc1 [Example 25] : 1800

Briefly, IC50 measured for COc1ccc(N(C)c2nc(CNC(=O)Oc3ccccc3)nc3ccc(F)cc23)cc1 [Example 43] : 5.7

Entry source: patent US20100068197A1
